# MEASURED TARGET: HLA-A*11:01
# PROTOCOL: IEDB peptide-MHC binding, purified MHC/competitive/radioactivity; filed as Kd, often an IC50 or EC50 that approximates it; bounds were set here for any values at or beyond the usual limits of such assays
# MEASUREMENT SETUP: source organism: Mammarenavirus machupoense
MEASURED ENDPOINT: Kd (µM)
The answer is to be given in µM; state only the numeric part.

Tell me its Kd given CQFDHVNTLH as the entry. 8.74

====

# MEASURED TARGET: HLA-A*02:01
# PROTOCOL: IEDB peptide-MHC binding, purified MHC/competitive/radioactivity; bounds were set here for any values at or beyond the usual limits of such assays
# MEASUREMENT SETUP: source organism: Hepatitis B virus
MEASURED ENDPOINT: IC50 (µM)
The answer is to be given in µM; state only the numeric part.

Tell me its IC50 given GLSRYVARLS as the entry. 0.877

====

# MEASURED TARGET: HLA-B*07:02
# PROTOCOL: IEDB peptide-MHC binding, purified MHC/competitive/radioactivity; filed as Kd, often an IC50 or EC50 that approximates it; bounds were set here for any values at or beyond the usual limits of such assays
# MEASUREMENT SETUP: source organism: Mammarenavirus lassaense
MEASURED ENDPOINT: pKd
Remember, pKd is on a log scale: it is -log10 of the molar concentration.

Tell me its pKd given MPDCGMSVL as the entry. 7.00

====

Reported Kd is given for each of the following sequences.
# MEASURED TARGET: HLA-A*68:02
# PROTOCOL: IEDB peptide-MHC binding, purified MHC/competitive/radioactivity; filed as Kd, often an IC50 or EC50 that approximates it; bounds were set here for any values at or beyond the usual limits of such assays
# MEASUREMENT SETUP: source organism: Dengue virus 3 Martinique/1243/1999
The answer is to be given in nM; state only the numeric part.

MSTYGWNIV	39.4

Switching to the query record.
Tell me its Kd given DTVTYKCPHI as the entry. 89.7

====

# MEASURED TARGET: HLA-A*68:02
# PROTOCOL: IEDB peptide-MHC binding, purified MHC/competitive/fluorescence; filed as Kd, often an IC50 or EC50 that approximates it; bounds were set here for any values at or beyond the usual limits of such assays
# MEASUREMENT SETUP: source organism: Entamoeba histolytica HM-1:IMSS
pKd: −log10 of the molar value.
MEASURED ENDPOINT: pKd

Tell me its pKd given LICYQIEYI as the entry. ≤ 4.70

====

# MEASURED TARGET: HLA-A*68:02
# PROTOCOL: IEDB peptide-MHC binding, purified MHC/competitive/radioactivity; filed as Kd, often an IC50 or EC50 that approximates it; bounds were set here for any values at or beyond the usual limits of such assays
# MEASUREMENT SETUP: source organism: Trypanosoma cruzi
MEASURED ENDPOINT: Kd (µM)
The answer is to be given in µM; state only the numeric part.

Return reported Kd for target or system HLA-A*68:02, item GLLPLLLLLG . 7.01

====

# MEASURED TARGET: HLA-A*01:01
# PROTOCOL: IEDB peptide-MHC binding, purified MHC/direct/fluorescence; filed as Kd, often an IC50 or EC50 that approximates it; bounds were set here for any values at or beyond the usual limits of such assays
# MEASUREMENT SETUP: source organism: Mycobacterium avium 104
pKd: −log10 of the molar value.
MEASURED ENDPOINT: pKd

Tell me its pKd given LTVTLVWLY as the entry. ≤ 4.70

Just for reference, the Immune Epitope Database (IEDB) is where these values come from.
